- subject.of.test: Jun bZIP R259A;Fos bZIP K153A (human;human, UniProt P05412;P01100 252-315;137-200, R259A|K153A)
- Sequence (P05412 252-315 R259A, chain 1 of 2): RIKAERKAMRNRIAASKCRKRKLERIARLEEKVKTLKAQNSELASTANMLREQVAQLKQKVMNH
- Sequence (P01100 137-200 K153A, chain 2 of 2): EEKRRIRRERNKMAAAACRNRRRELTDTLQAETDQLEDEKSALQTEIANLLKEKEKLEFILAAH
- assay: ITC
quantity: Kd (µM)

{"binder": "TRE duplex 15-mer (dsDNA) DNA 1: CGCGTGACTCACCCC DNA 2: GGGGTGAGTCACGCG", "measured.result": 1.72}
